Measurement Description: p53 small molecule agonists, cell-based qHTS assay with rat liver microsomes: qHTS cell viability counter screen (AID 1963580); note: nearly all actives have a fitted effect of over 45% in size
Study Conditions: p53RE-bla HCT-116 + rat microsomes, ATP viability, 16 h; series mostly up to 66 µM
Inconclusive results are not listed. Calls of active or inactive are those of the source. Calls come from the whole dose curve.
A correct response names exactly one class from active, inactive

Exam item: Recorded call for COc1cc(S(=O)(=O)Nc2ccccc2)c(OC)cc1N ?
Marked response: inactive

Exam item: Recorded call for CC(C)COC(=O)c1ccc(O)cc1 ?
Marked response: inactive

Exam item: Recorded call for CC(C)COC(=O)CCCCC(=O)OCC(C)C ?
Marked response: inactive

Exam item: Recorded call for O=C(Nc1ccc(Oc2ccc(Cl)cc2)c(Cl)c1)c1cc(I)cc(I)c1O ?
Marked response: inactive

Exam item: Recorded call for CN(C)C(=O)Oc1cccc([N+](C)(C)C)c1 ?
Marked response: inactive

Exam item: Recorded call for CCOC(=O)COc1ccc2c(C)c(CCN(CC)CC)c(=O)oc2c1Cl ?
Marked response: inactive

Exam item: Recorded call for CCC(=O)OCCc1ccccc1 ?
Marked response: inactive

Exam item: Recorded call for C[N+](C)(C)CCOC(N)=O ?
Marked response: inactive

Exam item: Recorded call for COc1cccc2sc(N)nc12 ?
Marked response: inactive

Exam item: Recorded call for Clc1cc(Cl)c2c(c1)N=C1CCCCCN1C2 ?
Marked response: inactive

Exam item: Recorded call for Cc1ccc(N)cc1S(=O)(=O)O ?
Marked response: inactive

Exam item: Recorded call for CCNC(=O)/C=C/c1cccc(Br)c1 ?
Marked response: inactive

Exam item: Recorded call for C[Si](C)(C)O[Si](O)(O)O ?
Marked response: inactive

Exam item: Recorded call for CCO[C@H](Cc1ccc(OCCc2ccc(OS(C)(=O)=O)cc2)cc1)C(=O)O ?
Marked response: inactive

Exam item: Recorded call for CC1CCN(CCCC(=O)c2ccc(F)cc2)CC1 ?
Marked response: inactive

Exam item: Recorded call for O=C(O)c1ccc2cc(C(=O)O)ccc2c1 ?
Marked response: inactive

Exam item: Recorded call for CCc1c2c(nc3ccc(OC(=O)N4CCC(N5CCCCC5)CC4)cc13)-c1cc3c(c(=O)n1C2)COC(=O)[C@]3(O)CC ?
Marked response: active

Exam item: Recorded call for CCCN(C1CCN(C(=O)C2CCNCC2)CC1)[C@@H]1CCc2ccc(OC)cc2C1 ?
Marked response: inactive

Exam item: Recorded call for CCCCCCCCn1sc(Cl)c(Cl)c1=O ?
Marked response: active

Exam item: Recorded call for Cc1ccc(NC(=O)c2ccc(CN3CCN(C)CC3)cc2)cc1Nc1nccc(-c2cccnc2)n1 ?
Marked response: inactive

Exam item: Recorded call for Cc1c(-c2ccccc2)oc2c(C(=O)OCCN3CCCCC3)cccc2c1=O ?
Marked response: inactive

Exam item: Recorded call for CC1=Nc2ccccc2C1(C)C ?
Marked response: inactive

Exam item: Recorded call for COc1cc(C)nc(-n2nc(C)cc2OC)n1 ?
Marked response: inactive

* * *

Target System: D(2) dopamine receptor (Homo sapiens) (UniProt P14416)
Sequence (P14416 whole entry, looked up): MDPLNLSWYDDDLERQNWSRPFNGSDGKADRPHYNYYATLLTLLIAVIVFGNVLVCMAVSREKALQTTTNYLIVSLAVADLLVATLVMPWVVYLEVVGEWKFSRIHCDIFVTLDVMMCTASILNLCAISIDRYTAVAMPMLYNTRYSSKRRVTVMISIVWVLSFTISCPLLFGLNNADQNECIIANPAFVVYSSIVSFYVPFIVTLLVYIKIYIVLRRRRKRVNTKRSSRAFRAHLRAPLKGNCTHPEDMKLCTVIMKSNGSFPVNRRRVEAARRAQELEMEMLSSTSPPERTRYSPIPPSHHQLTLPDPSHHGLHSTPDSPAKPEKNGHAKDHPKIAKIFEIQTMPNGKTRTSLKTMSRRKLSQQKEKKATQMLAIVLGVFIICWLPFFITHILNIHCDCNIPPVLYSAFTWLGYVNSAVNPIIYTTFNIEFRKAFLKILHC
Measurement Description: Dopamine D2 receptor (DRD2) small molecule antagonists, cell-based qHTS assay (AID 1963595)
Study Conditions: HEK293-DRD2 cAMP HTRF antagonist mode; series mostly up to 92.4 µM
Records with an inconclusive call do not appear. The source made the active and inactive calls. Calls follow the shape of the dose curve; as a rule, active = well fitted inhibition curve with a large enough effect in the signal ratio in the repeat runs, with a control signal flat; inconclusive = weak or mixed curves, or effect the other way; inactive = flat fitted curve, though single readings scatter; the % refers to the signal ratio.
A correct response names exactly one class from yes (1) for active, no (0) for inactive

Exam item: Recorded call for C=CC(C)(CCC=C(C)C)OC(=O)/C=C/c1ccccc1 (stereo unspecified) ?
Marked response: no (0)

Exam item: Recorded call for CCNC(=O)NCc1cccc(Cl)c1 ?
Marked response: no (0)

Exam item: Recorded call for CC(=O)OCCC(C)CC(C)(C)C (stereo unspecified) ?
Marked response: no (0)

Exam item: Recorded call for C=CC(=O)OCC(C)OCC(C)OCC(C)OC(=O)C=C (stereo unspecified) ?
Marked response: no (0)

Exam item: Recorded call for Cc1cc(NC(=O)C(=O)O)cc(C)c1Oc1ccc(O)c2c1CCC2 ?
Marked response: no (0)

Exam item: Recorded call for CC(=O)CC(=O)Nc1ccc(S(=O)(=O)O)cc1 ?
Marked response: no (0)

Exam item: Recorded call for OC(C#CCN1CCCC1)(c1ccccc1)c1ccccc1 ?
Marked response: no (0)

Exam item: Recorded call for COc1cc(C)cc(O)c1 ?
Marked response: no (0)

Exam item: Recorded call for COC(C)=O ?
Marked response: no (0)

Exam item: Recorded call for COc1cc2ncnc(Nc3ccc(F)c(Cl)c3)c2cc1OCCCN1CCOCC1 ?
Marked response: yes (1)

Exam item: Recorded call for CCCCCC/C=C\CCCCCCCC(=O)O ?
Marked response: no (0)

Exam item: Recorded call for COP(=O)(OC)OC(c1ccc(Cl)cc1)P(=O)(OC)OC (stereo unspecified) ?
Marked response: no (0)

Exam item: Recorded call for CC(=O)[C@H]1[C@H](C#N)C[C@H]2[C@@H]3CC=C4C[C@@H](O)CC[C@]4(C)[C@H]3CC[C@@]21C ?
Marked response: no (0)

Exam item: Recorded call for O=C(Oc1ccccc1)Oc1ccccc1 ?
Marked response: no (0)

Exam item: Recorded call for CCCCC(CC)COC(=O)COc1cc(Cl)c(Cl)cc1Cl (stereo unspecified) ?
Marked response: no (0)

Exam item: Recorded call for CCOC(=O)/C=C/c1ccccc1 ?
Marked response: no (0)

* * *

Measurement Description: Nuclear factor erythroid 2-related factor 2/antioxidant responsive element (Nrf2/ARE) small molecule agonists: qHTS cell viability counter screen in human keratinocytes (AID 1919968); note: nearly all actives have a fitted effect of over 55% in size; note: potency is the fitted concentration of half-maximal effect
Study Conditions: KeratinoSens HaCaT ARE cells viability, CellTiter-Fluor, 24 h; series mostly up to 92.4 µM
Inconclusive results are not listed. Active and inactive are the calls of the source. Calls come from the whole dose curve; as a rule, active = well fitted cell-killing curve with a large enough effect in the repeat runs; inconclusive = weak or mixed curves, or effect the other way; inactive = flat fitted curve, though single readings scatter.
Quantity Name: Potency

Compound	Endpoint Value
CC(=O)Nc1ccc(OCCOCCOc2ccc(NC(C)=O)cc2)cc1	inactive
Cc1c(F)c(N2CCNC(C)C2)cc2c1c(=O)c(C(=O)O)cn2C1CC1 (stereo unspecified)	inactive
CC(=O)Nc1cccc(N)c1	inactive
O=C(Nc1cccc(Cl)c1)OCC#CCCl	17.2 µM (active)
O=C1NC(=O)c2cccc3cccc1c23	inactive

Here is another compound to look at.
The compound listed as CCC(=O)C1CC(C(C)C)CC=C1C (stereo unspecified) has a reported Potency of inactive

* * *

Target System: 5-hydroxytryptamine receptor 2A (Homo sapiens)
Measurement Description: 5-hydroxytryptamine receptor 2A (HTR2A) small molecule agonists, cell-based qHTS assay (AID 1963587); note: % is set by controls: 0 for no effect and ±100 for the full control effect; nearly all actives have a fitted effect of over 30% in size
Study Conditions: HTR2A-CHO cells, calcium flux fluorescence, agonist mode; series mostly up to 76.8 µM
Results filed as inconclusive are left out. The source made the active and inactive calls. Calls come from the whole dose curve.
Quantity Name: activation

The compound listed as C[C@@H]1CN(c2c(F)c(F)c3c(=O)c(C(=O)O)cn(C4CC4)c3c2F)C[C@H](C)N1 has a reported activation of -2.83% [at 15.9 µM] (inactive)

The compound listed as NC(N)=NCCC[C@H](N)C(=O)O has a reported activation of 2.81% [at 7.02 µM] (inactive)

The compound listed as N[C@@H](C(=O)N[C@@H]1C(=O)N2C(C(=O)O)=C(Cl)CS[C@H]12)c1ccccc1 has a reported activation of -1.95% [at 7.02 µM] (inactive)

* * *

Target System: Muscarinic acetylcholine receptor M1 (Homo sapiens) (UniProt P11229)
Sequence (P11229 whole entry, looked up): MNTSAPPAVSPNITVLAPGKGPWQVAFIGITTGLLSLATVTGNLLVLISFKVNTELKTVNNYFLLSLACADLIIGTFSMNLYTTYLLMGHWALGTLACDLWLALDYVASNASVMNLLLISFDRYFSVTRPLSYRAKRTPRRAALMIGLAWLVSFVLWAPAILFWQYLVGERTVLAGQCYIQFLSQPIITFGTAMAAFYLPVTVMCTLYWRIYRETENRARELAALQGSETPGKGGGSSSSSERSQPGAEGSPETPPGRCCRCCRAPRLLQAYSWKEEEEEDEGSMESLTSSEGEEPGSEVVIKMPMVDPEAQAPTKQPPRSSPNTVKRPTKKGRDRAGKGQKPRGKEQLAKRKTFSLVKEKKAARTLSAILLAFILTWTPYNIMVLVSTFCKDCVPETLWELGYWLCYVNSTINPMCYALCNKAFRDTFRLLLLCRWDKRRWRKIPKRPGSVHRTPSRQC
Measurement Description: Cholinergic receptor muscarinic 1 (CHRM1) small molecule antagonists, cell-based qHTS assay (AID 1963588); note: nearly all actives have a fitted effect of over 40% in size
Study Conditions: CHRM1-CHO antagonist mode, calcium flux fluorescence; series mostly up to 61.5 µM
Results filed as inconclusive are left out. Active and inactive are the calls of the source. Calls come from the whole dose curve.
A correct response names exactly one class from active, inactive

Exam item: Recorded call for CC(CN(C)C)CN1c2ccccc2CCc2ccccc21 (stereo not drawn) ?
Marked response: inactive

Exam item: Recorded call for CN(C)CCOC(c1ccccc1)c1ccc(Br)cc1 (stereo not drawn) ?
Marked response: active

Exam item: Recorded call for Oc1ccc(N=Nc2ccccc2)cc1 ?
Marked response: inactive

Exam item: Recorded call for NCCCC(N)(C(=O)O)C(F)F (stereo not drawn) ?
Marked response: active

Exam item: Recorded call for CC1=C(C(=O)O)N2C(=O)[C@@H](NC(=O)[C@H](N)c3ccc(O)cc3)[C@H]2SC1 ?
Marked response: inactive

Exam item: Recorded call for C[C@]12CC[C@H]3C(=CCc4cc(O)ccc43)[C@@H]1CCC2=O ?
Marked response: inactive

Exam item: Recorded call for CC(C)C(=O)OCCc1ccccc1 ?
Marked response: inactive

Exam item: Recorded call for Cc1ccc(OC(=O)CC(C)C)cc1 ?
Marked response: inactive

Exam item: Recorded call for CC(C)OC(=O)c1ccccc1C(=O)OC(C)C ?
Marked response: inactive

Exam item: Recorded call for Cc1cc(NC(=O)C(=O)O)cc(C)c1Oc1ccc(O)c2c1CCC2 ?
Marked response: inactive

Exam item: Recorded call for CCCCNC(=O)NCCCC ?
Marked response: inactive

Exam item: Recorded call for CCCCCCCCCCCCCCC ?
Marked response: inactive

Exam item: Recorded call for CC/C=C\C/C=C\C/C=C\CCCCCCCC(=O)OC ?
Marked response: inactive

Exam item: Recorded call for O=C(O)[C@@H]1CSCN1 ?
Marked response: inactive

Exam item: Recorded call for O=C(O)C(c1ccc(Cl)cc1)c1ccc(Cl)cc1 ?
Marked response: inactive

Exam item: Recorded call for CN(C)CCOCCO ?
Marked response: inactive

Exam item: Recorded call for C1CCOC1 ?
Marked response: inactive

Exam item: Recorded call for O=C1NC(=O)C2CC=CCC12 (stereo not drawn) ?
Marked response: inactive
